# System Name: Glycogen synthase kinase-3 alpha (Homo sapiens, UniProt P49840)
# Sequence (P49840 whole entry): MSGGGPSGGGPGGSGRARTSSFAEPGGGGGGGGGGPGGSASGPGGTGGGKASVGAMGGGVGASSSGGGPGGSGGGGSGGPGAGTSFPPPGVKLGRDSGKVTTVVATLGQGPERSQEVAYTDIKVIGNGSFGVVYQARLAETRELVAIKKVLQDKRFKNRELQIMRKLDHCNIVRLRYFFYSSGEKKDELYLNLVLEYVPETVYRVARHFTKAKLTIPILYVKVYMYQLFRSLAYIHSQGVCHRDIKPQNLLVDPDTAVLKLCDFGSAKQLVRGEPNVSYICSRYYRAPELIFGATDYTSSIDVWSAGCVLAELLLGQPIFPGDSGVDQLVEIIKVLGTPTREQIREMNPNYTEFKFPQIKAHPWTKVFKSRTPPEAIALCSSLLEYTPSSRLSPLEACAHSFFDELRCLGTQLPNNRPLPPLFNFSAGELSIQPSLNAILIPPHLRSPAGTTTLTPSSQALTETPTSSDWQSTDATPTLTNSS
Listing: IC50 of selected molecules

Please review the following examples before continuing.
Observed IC50, Glycogen synthase kinase-3 alpha (Homo sapiens, UniProt P49840), CC[C@]1(c2cccc(-c3ccncc3C)c2)C2=CN=NC2NC2=C1C(=O)NC1(CCCC1)C2 (stereo partly specified) : 100 to 1000 nM

The recorded IC50 with Glycogen synthase kinase-3 alpha (Homo sapiens, UniProt P49840) for C[C@H]1C[C@]2(CCN1S(=O)(=O)c1ccn(C)n1)C1=C(N=NC1)NC1=C2C(=O)CC(C)(C)C1 was < 100 nM

Observed IC50, Glycogen synthase kinase-3 alpha (Homo sapiens, UniProt P49840), CC[C@@]1(c2cccc(C(F)(F)F)c2)C2=C(CCN(c3ccc(OC)cc3)C2=O)NC2N=NC(C)=C21 (stereo partly specified) : < 100 nM

Lab entry: Glycogen synthase kinase-3 alpha (Homo sapiens, UniProt P49840) assay, molecule CC1CC(C(=O)N2CC3(C2)CC2(CO3)C3=C(N=NC3)NC3=C2C(=O)CC(C)(C)C3)C1 (stereo unspecified) , IC50 = < 100 nM

// molecule CCC1(c2cccc(Cl)c2)C2=C(CC(C)(C)CC2=O)NC2N=NC(C)=C21 (stereo unspecified) , assay Glycogen synthase kinase-3 alpha (Homo sapiens, UniProt P49840), IC50 value: < 100 nM

Further cases:
Kindly note: Glycogen synthase kinase-3 alpha (Homo sapiens, UniProt P49840), CC[C@@]1(c2cccc(-c3cnn(-c4ccccc4)c3C(F)(F)F)c2)C2=CN=NC2NC2=C1C(=O)NC(C)(C)C2 (stereo partly specified) , IC50 value reported: 100 to 1000 nM

---

For Glycogen synthase kinase-3 beta (Homo sapiens, UniProt P49841), measured IC50 is reported for the entries below.

Form: item CC1(C)CC(=O)C2=C(C1)NC1=C(CN=N1)C21CCN(S(=O)(=O)c2cc(Cl)ccc2Cl)CC1 [US20250313563, Compound 948122] ; test system Glycogen synthase kinase-3 beta (Homo sapiens, UniProt P49841); IC50: 100 to 1000 nM

New cases:
The molecule CC[C@@]1(c2cccc(Br)c2)C2=CN=NC2NC2=C1C(=O)C[C@H](C(F)(F)F)C2 (stereo partly drawn) [US20250313563, Compound 826654] on Glycogen synthase kinase-3 beta (Homo sapiens, UniProt P49841): IC50 was > 5000 nM

# lookup: CC[C@@]1(c2cccc(-c3ccncc3)c2)C2=CN=NC2NC2=C1C(=O)C[C@H](C)C2 (stereo partly drawn) [US20250313563, Compound 874316] on Glycogen synthase kinase-3 beta (Homo sapiens, UniProt P49841), IC50 = 1000 to 5000 nM

---

Parameter 'readout' = IC50; parameter 'system' = Glycogen synthase kinase-3 alpha (Homo sapiens, UniProt P49840).

Examples with their reported IC50 follow.
Given the compound CCC1(c2cccc(N(C)c3ccccn3)c2)C2=CN=NC2NC2=C1C(=O)CC(C)(C)C2 (stereo unspecified) [US20250313563, Compound 874294] and test system Glycogen synthase kinase-3 alpha (Homo sapiens, UniProt P49840), the measured IC50 is < 100 nM

Observed IC50, Glycogen synthase kinase-3 alpha (Homo sapiens, UniProt P49840), CCC1(c2cccc(-n3ccnc3)c2)C2=CN=NC2NC2=C1C(=O)CC(C)(C)C2 (stereo unspecified) [US20250313563, Compound 854926] : < 100 nM

Glycogen synthase kinase-3 alpha (Homo sapiens, UniProt P49840) assay, compound CCC1(c2cccc(-c3ncnn3C)c2)C2=CN=NC2NC2=C1C(=O)CC(C)(C)C2 (stereo unspecified) [US20250313563, Compound 943532] , recorded IC50 = < 100 nM

Known value: Glycogen synthase kinase-3 alpha (Homo sapiens, UniProt P49840) IC50 of the compound CC[C@@]1(c2cccc(-c3cnn4c3CC(C)(C)CC4)c2)C2=CN=NC2NC2=C1C(=O)NC(C)(C)C2 (stereo partly specified) [US20250313563, Compound 950564] equals < 100 nM

Sample CC[C@@]1(c2cccc(C(F)(F)F)c2)C2=CN=NC2NC2=C1C(=O)NC[C@@H]2C (stereo partly specified) [US20250313563, Compound 945384] , system: Glycogen synthase kinase-3 alpha (Homo sapiens, UniProt P49840). Its IC50 is 1000 to 5000 nM

API: the following record is the query input.
Measured IC50 for this entry CC[C@]1(c2cccc(-c3ccnn3C)c2)C2=C(CC(C)(C)CC2=O)NC2N=NC(C(F)(F)F)=C21 (stereo partly specified) [US20250313563, Compound 947365] on Glycogen synthase kinase-3 alpha (Homo sapiens, UniProt P49840): 100 to 1000 nM

---

# System Name: Glycogen synthase kinase-3 beta (Homo sapiens)
# Protocol Description: TR-FRET Assay
pIC50: −log10 of the molar value.
Measured Parameter: pIC50

Note to self: pIC50 recorded for CCC1(c2cccc(C(F)(F)F)c2)C2=CN=NC2NC2=C1C(=O)CC(C)C2 (configuration not stated) [US20250313563, Compound 801397] was 6.00 to 7.00

Documented pIC50 of CC[C@]1(c2cccc(N(C)c3cncnc3)c2)C2=CN=NC2NC2=C1C(=O)CC(C)(C)C2 (some centres not stated) [US20250313563, Compound 915400] : > 7.00

Input CC1(C)CC(=O)C2=C(C1)NC1N=NC(C(F)(F)F)=C1[C@@]21CCc2c(F)cccc21 (some centres not stated) [US20250313563, Compound 806568] . Output pIC50: 6.00 to 7.00

Now examine the next entry.
Entry CCC1(c2cccc(-c3ccnc(C)c3)c2)C2=CN=NC2NC2=C1C(=O)NC(C)C2 (configuration not stated) [US20250313563, Compound 913357] , pIC50 reported as 5.30 to 6.00

---

Measured IC50 (Glycogen synthase kinase-3 beta (Homo sapiens, UniProt P49841))

These recorded examples may help you get a feel for the data.
// IC50 (Glycogen synthase kinase-3 beta (Homo sapiens, UniProt P49841)) for CC[C@]1(c2cccc(C(F)(F)F)c2)C2=C(N=NC2)NC2=C1C(=O)N[C@@H]2C [US20250313563, Compound 945378] = 100 to 1000 nM

Tested on Glycogen synthase kinase-3 beta (Homo sapiens, UniProt P49841): Cn1cc(-c2cccc([C@@]3(C)C4=C(CC(C)(C)CC4=O)NC4=C3C(CC(C)(C)C)N=N4)c2)cn1 (stereo partly drawn) [US20250313563, Compound 126367] . Observed IC50: > 5000 nM

Next:
With Glycogen synthase kinase-3 beta (Homo sapiens, UniProt P49841) as the test system, CCC1(c2cccc(-c3cc(C)nnc3C)c2)C2=C(CC(C)(C)NC2=O)NC2N=NC(C)=C21 (stereo not drawn) [US20250313563, Compound 948766] showed IC50 of 100 to 1000 nM

Given the compound CC[C@@]1(c2cccc(-c3ccnn3C)c2)C2=CN=NC2NC2=C1C(=O)CC(C)(C)[C@H]2F (stereo partly drawn) [US20250313563, Compound 957508] and test system Glycogen synthase kinase-3 beta (Homo sapiens, UniProt P49841), the measured IC50 is > 5000 nM

Glycogen synthase kinase-3 beta (Homo sapiens, UniProt P49841) assay, compound CC[C@@]1(c2cccc(N3CCCc4ncccc43)c2)C2=CN=NC2NC2=C1C(=O)CC(C)(C)C2 (stereo partly drawn) [US20250313563, Compound 917079] , recorded IC50 = 1000 to 5000 nM

---

# System Name: Glycogen synthase kinase-3 beta (Homo sapiens, UniProt P49841)
# Sequence (P49841 whole entry): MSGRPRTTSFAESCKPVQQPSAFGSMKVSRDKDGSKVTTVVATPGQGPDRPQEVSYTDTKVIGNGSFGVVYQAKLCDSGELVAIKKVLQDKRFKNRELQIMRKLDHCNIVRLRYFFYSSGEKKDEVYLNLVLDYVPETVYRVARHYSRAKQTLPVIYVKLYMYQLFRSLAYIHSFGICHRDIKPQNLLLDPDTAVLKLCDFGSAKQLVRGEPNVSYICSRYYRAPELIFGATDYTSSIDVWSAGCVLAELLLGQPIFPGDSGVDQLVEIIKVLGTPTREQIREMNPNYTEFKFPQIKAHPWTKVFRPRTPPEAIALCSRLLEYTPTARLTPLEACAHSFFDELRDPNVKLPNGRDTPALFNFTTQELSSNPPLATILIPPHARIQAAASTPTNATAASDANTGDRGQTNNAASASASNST
Measured Parameter: IC50

Sample records with IC50:
Considering CCC1(c2cccc(CNC)c2)C2=CN=NC2NC2=C1C(=O)CC(C)(C)C2 (stereo unspecified) , its IC50 with Glycogen synthase kinase-3 beta (Homo sapiens, UniProt P49841) was recorded as > 5000 nM

Glycogen synthase kinase-3 beta (Homo sapiens, UniProt P49841) assay, molecule CC[C@]1(c2cccc(N3CCCCC3)c2)C2=C(CC(C)(C)CC2=O)NC2N=NC(C(F)(F)F)=C21 (stereo partly specified) , recorded IC50 = < 100 nM

Summary line: CCC1(c2cccc(N(C)c3ccnc(C(F)(F)F)c3)c2)C2=CN=NC2NC2=C1C(=O)CC(C)(C)C2 (stereo unspecified) , Glycogen synthase kinase-3 beta (Homo sapiens, UniProt P49841), reported IC50 = < 100 nM

Record Cn1nccc1-c1cccc2c1CCC[C@@]21C2=CN=NC2NC2=C1C(=O)CC(C)(C)C2 (stereo partly specified) has Glycogen synthase kinase-3 beta (Homo sapiens, UniProt P49841) IC50 equal to < 100 nM

New cases:
Param item: CC[C@@]1(c2cccc(-c3cnn4c3CCCC4)c2)C2=C(CC(C)(C)NC2=O)NC2N=NC(C)=C21 (stereo partly specified) ; param system: Glycogen synthase kinase-3 beta (Homo sapiens, UniProt P49841); output IC50: < 100 nM

Bench note, Glycogen synthase kinase-3 beta (Homo sapiens, UniProt P49841): entry C[C@H]1C[C@]2(CCO1)C1=C(N=NC1)NC1=C2C(=O)CC(C)(C)C1 , its IC50 = 1000 to 5000 nM

Where these numbers come from: BindingDB's records for patent US20250313563
